# protocol text: Plasma protein binding by rapid equilibrium dialysis (RED) in K3-EDTA plasma from donors
# Assay type: in vitro ADME, human
# test settings: human, fresh K3-EDTA plasma from three donors (not frozen), fresh plasma from three donors, 500 ng/mL, day 0 (not frozen); read-out: mean percent unbound
assay endpoint: fraction unbound at 8 h, 500 ng/mL

* COc1ccc2[nH]c3c(c2c1)CCN[C@]31CS[C@@H]2c3c(OC(C)=O)c(C)c4c(c3[C@H](COC1=O)N1[C@@H]2[C@H]2c3c(cc(C)c(OC)c3O)C[C@@H]([C@@H]1O)N2C)OCO4 [Lurbinectedin] | 0.00151 to 0.00335

---

# protocol text: Plasma protein binding by RED in artificial plasma (PBS with recombinant human AAG and albumin)
# Type: in vitro ADME
# test settings: human, condition 2: varying albumin 25-50 mg/mL, AAG 1 mg/mL, lurbinectedin 500 ng/mL; read-out: fu (percent unbound)
assay endpoint: fraction unbound at 8 h, 500 ng/mL

• COc1ccc2[nH]c3c(c2c1)CCN[C@]31CS[C@@H]2c3c(OC(C)=O)c(C)c4c(c3[C@H](COC1=O)N1[C@@H]2[C@H]2c3c(cc(C)c(OC)c3O)C[C@@H]([C@@H]1O)N2C)OCO4 = 0.00404
